B1: tRNA (parent)
chain: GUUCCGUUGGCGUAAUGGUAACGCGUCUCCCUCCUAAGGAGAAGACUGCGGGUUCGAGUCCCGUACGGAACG

# Variants of: B1
# METHOD_DESCRIPTION: yeast fitness relative to wild type (ratio to wild type); higher = fitter; tRNA-Arg(CCU), competitive growth, 37 C, YPD
This sample holds only a part of the variants without activity.

{"columns": ["SEQUENCE_CONTENT", "yeast fitness"],
 "data": [
  ["GUUCCGUUAGCGUAAUGGUAACGCGUCUCCCUCCUAACGAGAAGACUGCGGGUUCGAGUCCCGUACGGAACG [G9A G38C]", 0.758],
  ["GUUCCGUUGGCGUAAUGGUAACGGGUCUCCCUCCUAACGAGAAGAAUGCGGGUUCGAGUCCCGUACGGAACG [C24G G38C C46A]", "≤ 0.5"],
  ["GUUCCGUUGGCGUAUUGGUAACGCGUCUCCCUCCUAAGGAGAAGACUGCGGGUUCCAGUCCCGUACUGAACG [A15U G56C G67U]", "≤ 0.5"],
  ["GUUCGGUUGGCGUAAUGGUAAUGCGUCUCCGUCCUAAGGAGAAGACUGCGGGUUCGAGUACCGUACGGAACG [C5G C22U C31G C60A]", "≤ 0.5"],
  ["GUUACGUUGGCGUAAUGGUAACGCGUCUCCCUUCUAGGGAGAAGACUGCGGGUUCGAGUCCCGUACGGAACG [C4A C33U A37G]", "≤ 0.5"],
  ["GUUCCGUUGACAUAAAGAUAACGCGUCUCCCUCCUAAGGAGAAGUCUGCGGGUUCGAGUCCCGUACGGAACG [G10A G12A U16A G18A A45U]", "≤ 0.5"],
  ["GUUUCGUUGGCGUAAUGGUAACGCGUCUCCCUCCUAAGGAGAAGCCUGCGGGUUCGAGUGCCGUACGGAACG [C4U A45C C60G]", 0.671],
  ["GUUCCGUUGGCGUAAUGGUAACGCGUCUCCCGCCAAACGAGAAGAGUGCGGGUUCGAGUCCCGUACGGAACG [U32G U35A G38C C46G]", "≤ 0.5"],
  ["GUUCCGUUGGCGUAAUGGUAACGCGUCUCCCUCCUAAGGAGAAGACUGCGGGUUCGUGUCCAGAACGGAACG [A57U C62A U64A]", "≤ 0.5"],
  ["GUUCCGCUGGCGUAAUGGUAACGCGUCUCCCUCCUACGGCGAAGUCUGCGGGUUCGCGUCCCGUACGGAACG [U7C A37C A40C A45U A57C]", 0.573],
  ["GGUCCGUUGGGGUAAUGGUUACGGGUCUCCCUCCUAAGGAGAAGACUGCGGGUUAGAGUCUCGUACGGAACG [U2G C11G A20U C24G C55A C61U]", "≤ 0.5"],
  ["GUUCCGUUGGCGUAAUGGUAUCGCGUCUCCCUGCUAAGGAGGAAACUGCGGGUUCGAGUCUCGUAUGGAACG [A21U C33G A42G G44A C61U C66U]", "≤ 0.5"],
  ["GUUCCGUUGGCGUAAUGGUAACGCGUCUCCUUCCUAAGGAGAAGACUCCGGGUUAGAGUGCCGUACGGGACG [C31U G48C C55A C60G A69G]", "≤ 0.5"],
  ["GUUCCGUUGGCGUUAUGGUAACGCGUGUCCCUCCUAAGGAGAAGACUGCGGGUUCGAGUCCCGUACGGAACG [A14U C27G]", 0.611]
]}
